Values compiled from PubChem BioAssay AID2060505.

Tested on: 633275-114-R-J1-PDC complex spheroids, viability
Assay: Anticancer human tumor 633275-114-R-J1-PDC patient-derived endometrial adenocarcinoma cell line growth inhibition [GQUAD]
Settings: second compound 0.0316 µM; first compound 3.16 µM; stronger effect = lower value
Text: DNA G-quadruplex Stabilizer Agents in Combinations in Complex Spheroids A high-throughput screen of multi-cell type tumor spheroids was designed to identify active combinations of DNA G-quadruplex stabilizer agents and targeted small molecules. […] Compounds. […] If the clinical Cmax for an agent had not been determined, the highest concentration tested was 10 microM. […]
Let's look at some compounds and their measured viability, T/C.
Field format: number, assumed %, no unit text.

The cases that follow already have their viability, T/C on record.
- compound: "CC(=O)O[C@H]1C(=O)[C@@]2(C)[C@H]([C@H](OC(=O)c3ccccc3)[C@]3(O)C[C@H](OC(=O)[C@H](O)[C@@H](NC(=O)c4ccccc4)c4ccccc4)C(C)=C1C3(C)C)[C@]1(OC(C)=O)CO[C@@H]1C[C@@H]2O + CN(C)c1ccc(Nc2c3ccc(NC(=O)CCN4CCCC4)cc3nc3cc(NC(=O)CCN4CCCC4)ccc23)cc1"
  viability, T/C / %: 20.9
- compound: "Nc1ccn(C2OC(CO)C(O)C2(F)F)c(=O)n1 (stereo unspecified) + CN(C)c1ccc(Nc2c3ccc(NC(=O)CCN4CCCC4)cc3nc3cc(NC(=O)CCN4CCCC4)ccc23)cc1"
  viability, T/C / %: 20.7
- compound: "C#Cc1c(F)ccc2cc(O)cc(-c3ncc4c(N5CC6CCC(C5)N6)nc(OCC56CCCN5CC(F)C6)nc4c3F)c12 (stereo unspecified) + Cc1cnc(CNC(=O)c2c(=O)c3ccc(N4CCCN(C)CC4)nc3n3c2sc2ccccc23)cn1"
  viability, T/C / %: 47.1
- compound: "COc1cc(C2c3cc4c(cc3C(OC3OC5COC(C)OC5C(O)C3O)C3COC(=O)C23)OCO4)cc(OC)c1O (stereo unspecified) + Cc1[nH]c2ccc(F)cc2c1-c1nc2c3cccnc3c3ncccc3c2[nH]1"
  viability, T/C / %: 40
- compound: "C#Cc1c(F)ccc2cc(O)cc(-c3ncc4c(N5CC6CCC(C5)N6)nc(OCC56CCCN5CC(F)C6)nc4c3F)c12 (stereo unspecified) + Cc1[nH]c2ccc(F)cc2c1-c1nc2c3cccnc3c3ncccc3c2[nH]1"
  viability, T/C / %: 75.7

Could you now look at the following compound, please?
Tested on 633275-114-R-J1-PDC complex spheroids, viability, the item O=C(NO)c1cnc(N2CCN(S(=O)(=O)c3ccc4ccccc4c3)CC2)nc1 + Cc1cnc(CNC(=O)c2c(=O)c3ccc(N4CCCN(C)CC4)nc3n3c2sc2ccccc23)cn1 showed viability, T/C equal to 12.3

---

Tested on: 633275-114-R-J1-PDC complex spheroids, viability
Assay: Anticancer human tumor 633275-114-R-J1-PDC cell line growth inhibition [GQUAD];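 further: spheroids exposed to the agents for seven days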;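 on viability, T/C: percent of DMSO vehicle control viability which is 100%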
Settings: second compound 3.16 µM; first compound 1 µM; stronger effect = lower value
readoutKind: viability, T/C (%)
Please reply with the bare figure in % and do not write the unit itself.

Reference set (2 entries):
- molecule: "C#Cc1c(F)ccc2cc(O)cc(-c3ncc4c(N5CC6CCC(C5)N6)nc(OCC56CCCN5CC(F)C6)nc4c3F)c12 (stereo not drawn) + CN(C)c1ccc(Nc2c3ccc(NC(=O)CCN4CCCC4)cc3nc3cc(NC(=O)CCN4CCCC4)ccc23)cc1"
  readoutKind: "viability, T/C"
  numericResult: 66.3
- molecule: "COc1ccc([C@@H](O)c2cc(-c3ncnc4cc(N5CCOCC5)ccc34)c(F)cc2Cl)nn1 + Cc1[nH]c2ccc(F)cc2c1-c1nc2c3cccnc3c3ncccc3c2[nH]1"
  readoutKind: "viability, T/C"
  numericResult: 56.8

Please turn your attention to the following entry.
viability, T/C for CC(C)n1c(=O)n(C)c2cnc3cc(F)c(-c4ccc(OCCCN5CCCCC5)nc4)cc3c21 + Cc1cnc(CNC(=O)c2c(=O)c3ccc(N4CCCN(C)CC4)nc3n3c2sc2ccccc23)cn1 is 32.3

---

Test system: 633275-114-R-J1-PDC complex spheroids, viability
Assay: Anticancer human tumor 633275-114-R-J1-PDC cell line growth inhibition [GQUAD];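 further: spheroids exposed to the agents for seven days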;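 on viability, T/C: percent of DMSO vehicle control viability which is 100%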
Conditions: second compound 1 µM; first compound 3.16 µM; stronger effect = lower value
// returns false (0) unless viability, T/C is strictly below 20%, in which case true (1)

Reference set (3 entries):
- compound: "O=C(c1cc(Cc2n[nH]c(=O)c3ccccc23)ccc1F)N1CCN(C(=O)C2CC2)CC1 + Cc1cnc(CNC(=O)c2c(=O)c3ccc(N4CCCN(C)CC4)nc3n3c2sc2ccccc23)cn1"
  assignedLabel: "false (0)"
- compound: "CC1COCCN1c1cc(C2(S(C)(=N)=O)CC2)nc(-c2ccnc3[nH]ccc23)n1 (stereo not given) + Cc1cnc(CNC(=O)c2c(=O)c3ccc(N4CCCN(C)CC4)nc3n3c2sc2ccccc23)cn1"
  assignedLabel: "false (0)"
- compound: "CC(=O)O[C@H]1C(=O)[C@@]2(C)[C@H]([C@H](OC(=O)c3ccccc3)[C@]3(O)C[C@H](OC(=O)[C@H](O)[C@@H](NC(=O)c4ccccc4)c4ccccc4)C(C)=C1C3(C)C)[C@]1(OC(C)=O)CO[C@@H]1C[C@@H]2O + Cc1cnc(CNC(=O)c2c(=O)c3ccc(N4CCCN(C)CC4)nc3n3c2sc2ccccc23)cn1"
  assignedLabel: "false (0)"

[Q] Given the entry COc1ccc([C@@H](O)c2cc(-c3ncnc4cc(N5CCOCC5)ccc34)c(F)cc2Cl)nn1 + Cc1cnc(CNC(=O)c2c(=O)c3ccc(N4CCCN(C)CC4)nc3n3c2sc2ccccc23)cn1 , would its reported viability, T/C be below 20%?
[A] true (1)

[Q] Please determine if C=CCn1c(=O)c2cnc(Nc3ccc(N4CCN(C)CC4)cc3)nc2n1-c1cccc(C(C)(C)O)n1 + Cc1[nH]c2ccc(F)cc2c1-c1nc2c3cccnc3c3ncccc3c2[nH]1 is below 20% in terms of viability, T/C.
[A] true (1)

---

Tested on: 633275-114-R-J1-PDC complex spheroids, viability
Experiment: Anticancer human tumor 633275-114-R-J1-PDC cell line growth inhibition [GQUAD];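 further: spheroids exposed to the agents for seven days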
Details: curve of first compound; second compound 1 µM
pIC50: −log10 of the molar value.
readoutKind: pIC50

Some entries whose results are on file:
- compound: "CC1COCCN1c1cc(C2(S(C)(=N)=O)CC2)nc(-c2ccnc3[nH]ccc23)n1 (stereo unspecified) + Cc1[nH]c2ccc(F)cc2c1-c1nc2c3cccnc3c3ncccc3c2[nH]1"
  systemTested: "633275-114-R-J1-PDC complex spheroids, viability"
  pIC50: 5.49
- compound: "C=CC(=O)N1CCN(c2nc(=O)n(-c3c(C)ccnc3C(C)C)c3nc(-c4c(O)cccc4F)c(F)cc23)C(C)C1 (stereo unspecified) + CN(C)c1ccc(Nc2c3ccc(NC(=O)CCN4CCCC4)cc3nc3cc(NC(=O)CCN4CCCC4)ccc23)cc1"
  systemTested: "633275-114-R-J1-PDC complex spheroids, viability"
  pIC50: "< 5.00"
- compound: "C#Cc1c(F)ccc2cc(O)cc(-c3ncc4c(N5CC6CCC(C5)N6)nc(OCC56CCCN5CC(F)C6)nc4c3F)c12 (stereo unspecified) + CN(C)c1ccc(Nc2c3ccc(NC(=O)CCN4CCCC4)cc3nc3cc(NC(=O)CCN4CCCC4)ccc23)cc1"
  systemTested: "633275-114-R-J1-PDC complex spheroids, viability"
  pIC50: "< 5.00"
- compound: "Cc1cccc(N(C)C(=O)C2C(O)CCN2c2nc(C)cc(C(F)(F)F)c2C#N)c1 (stereo unspecified) + Cc1[nH]c2ccc(F)cc2c1-c1nc2c3cccnc3c3ncccc3c2[nH]1"
  systemTested: "633275-114-R-J1-PDC complex spheroids, viability"
  pIC50: "< 5.00"
- compound: "CC(C)n1c(=O)n(C)c2cnc3cc(F)c(-c4ccc(OCCCN5CCCCC5)nc4)cc3c21 + Cc1[nH]c2ccc(F)cc2c1-c1nc2c3cccnc3c3ncccc3c2[nH]1"
  systemTested: "633275-114-R-J1-PDC complex spheroids, viability"
  pIC50: "< 5.00"
- compound: "CC1COCCN1c1cc(-c2ccnn2C)c2ccnc(-c3ccn[nH]3)c2n1 (stereo unspecified) + Cc1cnc(CNC(=O)c2c(=O)c3ccc(N4CCCN(C)CC4)nc3n3c2sc2ccccc23)cn1"
  systemTested: "633275-114-R-J1-PDC complex spheroids, viability"
  pIC50: "> 7.50"
- compound: "CCCS(=O)(=O)Nc1ccc(F)c(C(=O)c2c[nH]c3ncc(-c4ccc(Cl)cc4)cc23)c1F + CN(C)c1ccc(Nc2c3ccc(NC(=O)CCN4CCCC4)cc3nc3cc(NC(=O)CCN4CCCC4)ccc23)cc1"
  systemTested: "633275-114-R-J1-PDC complex spheroids, viability"
  pIC50: 5.08
- compound: "CC1COCCN1c1cc(C2(O)CC3CCC(C2)O3)c2cnn(-c3ccn[nH]3)c2n1 (stereo unspecified) + CN(C)c1ccc(Nc2c3ccc(NC(=O)CCN4CCCC4)cc3nc3cc(NC(=O)CCN4CCCC4)ccc23)cc1"
  systemTested: "633275-114-R-J1-PDC complex spheroids, viability"
  pIC50: 7.19

pIC50 recorded for this compound, Cn1ncnc1[C@H]1c2n[nH]c(=O)c3cc(F)cc(c23)N[C@@H]1c1ccc(F)cc1 + Cc1[nH]c2ccc(F)cc2c1-c1nc2c3cccnc3c3ncccc3c2[nH]1 , is < 6.50

GET /value?item= C=CC(=O)N1CCN(c2nc(=O)n(-c3c(C)ccnc3C(C)C)c3nc(-c4c(O)cccc4F)c(F)cc23)C(C)C1 (stereo unspecified) + Cc1cnc(CNC(=O)c2c(=O)c3ccc(N4CCCN(C)CC4)nc3n3c2sc2ccccc23)cn1 &field=pIC50 returns > 7.50

Lookup result for COc1cc(C2c3cc4c(cc3C(OC3OC5COC(C)OC5C(O)C3O)C3COC(=O)C23)OCO4)cc(OC)c1O (stereo unspecified) + Cc1cnc(CNC(=O)c2c(=O)c3ccc(N4CCCN(C)CC4)nc3n3c2sc2ccccc23)cn1 ; measured pIC50: > 7.50

Value of measured pIC50 for the entry O=c1[nH]cc(F)c(=O)[nH]1 + Cc1cnc(CNC(=O)c2c(=O)c3ccc(N4CCCN(C)CC4)nc3n3c2sc2ccccc23)cn1 : > 7.50

So for CC1COCCN1c1cc(C2(O)CC3CCC(C2)O3)c2cnn(-c3ccn[nH]3)c2n1 (stereo unspecified) + Cc1[nH]c2ccc(F)cc2c1-c1nc2c3cccnc3c3ncccc3c2[nH]1 , the logged pIC50 turned out to be 7.08
